The following compounds are shown together with reported remaining at 2 h, 2 µM values.
Test: Stability in mouse plasma assessed as compound remaining at 2 uM measured after 2 hrs by LC-MS/MS analysis
Format: ADME, cell-free
Conditions: read-out: Stability
Enter your answer as a number in %; do not include the unit.

# line notation, units symbol, observed
records = [
    ("CCOC(=O)c1c(CSc2ccc(C)cc2C)n(Cc2cccc3ccccc23)c2cc(Br)c(O)cc12", "%", 70.3),
]

Let's switch to this compound now.
Input: remaining at 2 h, 2 µM lookup needed for CCOC(=O)c1c(CSc2ccc(C)cc2C)n(Cc2ccc(C)cc2)c2cc(Br)c(O)c(CN(C)C)c12 , thanks.
Output: 88.4

---

Experiment: Stability in human plasma assessed as half life at 2 uM measured up to 120 mins by LC-MS/MS analysis
Type: ADME, cell-free
The following compounds are shown together with reported half-life at 2 µM values.

Reference set, count: 8
# line notation, recorded endpoint, observed
measured = [
    ("Cc1ccc(Cn2c(CSc3c(C)cc(C)cc3C)c(C(=O)NC(C)(C)C)c3cc(O)c(Br)cc32)cc1", "half-life at 2 µM", "> 2 h"),
    ("CC(C)[N+](C)(CCOC(=O)C1c2ccccc2Oc2ccccc21)C(C)C", "half-life at 2 µM", "0.354 h"),
    ("Cc1ccc(Cn2c(CSc3c(C)cc(C)cc3C)c(C(=O)N3CCC(N4CCOCC4)CC3)c3cc(O)c(Br)cc32)cc1", "half-life at 2 µM", "0.685 h"),
    ("CCOC(=O)c1c(CSc2ccc(C)cc2C)n(Cc2cccc3ccccc23)c2cc(Br)c(O)cc12", "half-life at 2 µM", "> 4 h"),
    ("CCOC(=O)c1c(CSc2ccc(C)cc2C)n(Cc2ccc(C)cc2)c2cc(Br)c(O)c(CN(C)C)c12", "half-life at 2 µM", "> 2 h"),
    ("CN(C)CCCCNC(=O)c1c(CSc2ccc(F)cc2)n(C)c2cc(Br)c(O)cc12", "half-life at 2 µM", "< 2 h"),
    ("CCOC(=O)c1c(CSc2c(C)cc(C)cc2C)n(Cc2ccc(C)cc2)c2cc(Br)c(O)cc12", "half-life at 2 µM", "> 2 h"),
    ("Cc1ccc(Cn2c(CSc3c(C)cc(C)cc3C)c(C(=O)Nc3cnn(C)c3)c3cc(O)c(Br)cc32)cc1", "half-life at 2 µM", "0.7 h"),
]

Let's switch to this compound now.
Input: half-life at 2 µM lookup needed for Cc1ccc(Cn2c(CSc3c(C)cc(C)cc3C)c(C(=O)NC3CCN(C(C)C)CC3)c3cc(O)c(Br)cc32)cc1 , thanks.
Output: > 4 h

---

Test: Cmax in female C57BL/6 mouse at 20 mg/kg, po
Type: ADME, organism-based
Settings: in vivo
recorded endpoint: Cmax (ng/mL)
Enter your answer as a number in ng/mL; do not include the unit.

Input: Cmax lookup needed for Cc1ccc(Cn2c(CSc3c(C)cc(C)cc3C)c(C(=O)N3CCC(N4CCOCC4)CC3)c3cc(O)c(Br)cc32)cc1 , thanks.
Output: 148

---

Target: UniProt Q12809
Sequence (Q12809 whole entry): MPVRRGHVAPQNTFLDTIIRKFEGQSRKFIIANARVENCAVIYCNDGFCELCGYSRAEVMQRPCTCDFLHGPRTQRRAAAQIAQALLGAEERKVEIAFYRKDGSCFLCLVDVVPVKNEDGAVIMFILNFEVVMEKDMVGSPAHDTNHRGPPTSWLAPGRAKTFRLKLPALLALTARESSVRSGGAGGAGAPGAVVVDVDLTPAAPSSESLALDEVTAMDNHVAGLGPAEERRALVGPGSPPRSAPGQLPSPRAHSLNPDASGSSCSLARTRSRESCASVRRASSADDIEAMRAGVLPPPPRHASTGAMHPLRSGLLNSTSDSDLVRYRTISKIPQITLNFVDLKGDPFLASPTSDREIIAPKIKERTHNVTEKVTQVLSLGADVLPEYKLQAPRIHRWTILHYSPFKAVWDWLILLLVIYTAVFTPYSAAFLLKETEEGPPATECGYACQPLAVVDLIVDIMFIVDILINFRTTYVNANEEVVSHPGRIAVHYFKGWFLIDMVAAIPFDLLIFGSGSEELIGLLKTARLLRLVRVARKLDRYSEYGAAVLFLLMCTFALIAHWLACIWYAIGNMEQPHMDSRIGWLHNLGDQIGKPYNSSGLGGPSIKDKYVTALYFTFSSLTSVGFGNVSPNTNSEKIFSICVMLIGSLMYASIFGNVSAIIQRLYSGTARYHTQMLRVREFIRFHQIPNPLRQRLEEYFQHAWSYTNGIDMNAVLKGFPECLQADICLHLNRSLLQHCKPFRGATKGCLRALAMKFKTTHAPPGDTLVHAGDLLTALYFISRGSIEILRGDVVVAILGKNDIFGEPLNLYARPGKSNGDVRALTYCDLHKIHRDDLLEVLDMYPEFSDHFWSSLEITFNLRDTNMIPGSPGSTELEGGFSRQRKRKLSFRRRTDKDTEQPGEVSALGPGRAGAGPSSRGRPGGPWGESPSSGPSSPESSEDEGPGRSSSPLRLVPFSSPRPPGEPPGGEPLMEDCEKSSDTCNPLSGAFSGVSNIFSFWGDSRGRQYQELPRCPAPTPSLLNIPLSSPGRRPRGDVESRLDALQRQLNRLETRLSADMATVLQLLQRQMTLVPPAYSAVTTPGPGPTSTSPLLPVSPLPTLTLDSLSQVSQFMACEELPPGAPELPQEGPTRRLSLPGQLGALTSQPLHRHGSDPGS
Experiment: Inhibition of hERG
Assay type: toxicity
recorded endpoint: pIC50
Please express pIC50 as -log10 of the molar concentration.

Input: pIC50 lookup needed for CCOC(=O)c1c(CSc2ccccc2)n(C)c2cc(Br)c(O)c(CN(C)C)c12 , thanks.
Output: 6.27

Sourced from ChEMBL document CHEMBL6134895
